Attribute: residual activity
- target-or-system: Tyrosine-protein kinase JAK2 (Homo sapiens)
- measurement-context: at 1 µM
Please state the number and follow it with the unit.

Record excerpt, results attached:
* O=C1Nc2cc(Br)ccc2/C1=C1/Nc2ccccc2/C1=N\O | 68%
* O=C(Nc1cccc(Nc2nccc(Nc3cccc(C(F)(F)F)c3)n2)c1)C1CC1 | 19%
* Cc1nc(-c2ccccc2)c(-c2ccncc2)o1 | 113%

Please report the measured residual activity for Oc1ccc(-c2nc(-c3ccc(F)cc3)c(-c3ccncc3)[nH]2)cc1 101%

Please report the measured residual activity for O=C(Nc1cccc(Nc2cc(Nc3cccc(C(F)(F)F)c3)ncn2)c1)C1CC1 116%

Please report the measured residual activity for Cc1ccc(NC2=CC(=O)c3sc(C)nc3C2=O)cc1 97%
